Taken from paper PMC3747139.

Each item that follows carries a reported viability at 48 h.
- measurement_notes: Cell count assay (trypan blue)
- Type: cell-based
- Set-up: concentration or dose not given beside the values
- measurement_setup: human, CRL-2115 cells (normal cell line); CRL-2115, 48 h; read-out: Number of viable cells after 48 h of ligand treatment

>  <compound>
CCOC(=O)c1nnn(Cc2ccccc2)c1/C=C/c1ccccc1 [Ligand L10]

>  <viability at 48 h>
80 to 90%

$$$$
>  <compound>
CCCCc1nnn(Cc2ccccc2)c1/C=C/c1ccccc1 [Ligand L5]

>  <viability at 48 h>
50 to 60%

$$$$
>  <compound>
CCCCc1nnn(Cc2ccccc2)c1-c1cccc(O)c1 [Ligand L6]

>  <viability at 48 h>
50 to 60%

$$$$
>  <compound>
CCOC(=O)c1nnn(Cc2ccccc2)c1-c1cccc(O)c1 [Ligand L11]

>  <viability at 48 h>
80 to 90%

$$$$

Please look at the following compound next.
The compound COc1ccc(-c2c(-c3ccccc3)nnn2CC2CCCCO2)cc1 (centres unmarked) [Ligand L14] showed viability at 48 h equal to 80 to 90%

====

This section presents compounds with their documented viability at 48 h values.
- measurement_notes: Cell count assay (trypan blue)
- Type: cell-based
- Design: concentration or dose not given beside the values
- measurement_setup: human, CRL-2115 cells (normal cell line); CRL-2115, 48 h; read-out: Number of viable cells after 48 h of ligand treatment

For orientation, consider the following solved cases.
>  <compound>
Cc1cn([C@H]2C[C@H](n3cc(-c4ccccc4)nn3)[C@@H](CO)O2)c(=O)[nH]c1=O

>  <viability at 48 h>
50 to 60%

$$$$
>  <compound>
C(=C\c1c(-c2ccccc2)nnn1CC1CCCCO1)/c1ccccc1 (centres unmarked)

>  <viability at 48 h>
80 to 90%

$$$$
>  <compound>
c1ccc(-c2nnn(CC3CCCCO3)c2-c2ccccc2)cc1 (centres unmarked)

>  <viability at 48 h>
80 to 90%

$$$$
>  <compound>
Cc1cn([C@H]2C[C@H](N=[N+]=[N-])[C@@H](CO)O2)c(=O)[nH]c1=O [Ligand L1, reference compound]

>  <viability at 48 h>
50 to 60%

$$$$
>  <compound>
Cc1cn([C@H]2C[C@H](n3cc(-c4ccc(Cl)cc4)nn3)[C@@H](CO)O2)c(=O)[nH]c1=O

>  <viability at 48 h>
50 to 60%

$$$$

Record "CCOC(=O)c1nnn(Cc2ccccc2)c1-c1ccccc1" , field viability at 48 h: 50 to 60%

Reported viability at 48 h of "c1ccc(Cn2nnc(-c3ccccc3)c2-c2ccccc2)cc1" : 50 to 60%

The recorded viability at 48 h for entry Oc1cccc(-c2c(-c3ccccc3)nnn2CC2CCCCO2)c1 (centres unmarked) equals 80 to 90%

====

- measurement_notes: Cell count assay (trypan blue)
- Assay type: cell-based
- Set-up: concentration or dose not given beside the values
- measurement_setup: human, NCM-460 cells (normal cell line); NCM-460, 48 h; read-out: Number of viable cells after 48 h of ligand treatment
Some molecules, each annotated with its measured viability at 48 h.

Worked examples follow.
>  <molecule>
CCOC(=O)c1nnn(Cc2ccccc2)c1-c1cccc(O)c1

>  <value_observed>
80 to 90%

$$$$
>  <molecule>
CCOC(=O)c1nnn(Cc2ccccc2)c1-c1ccccc1

>  <value_observed>
80 to 90%

$$$$
>  <molecule>
C(=C\c1c(-c2ccccc2)nnn1CC1CCCCO1)/c1ccccc1 (centres unmarked)

>  <value_observed>
50 to 60%

$$$$
>  <molecule>
COc1ccc(-c2c(-c3ccccc3)nnn2CC2CCCCO2)cc1 (centres unmarked)

>  <value_observed>
50 to 60%

$$$$

Proceeding to the next molecule to report its viability at 48 h.
Lab book: viability at 48 h of "Cc1cn([C@H]2C[C@H](n3cc(-c4ccccc4)nn3)[C@@H](CO)O2)c(=O)[nH]c1=O" noted as 50 to 60%
